System: Plasmodium berghei
Protocol Details: Luciferase/luciferin-expressing antifolate-resistant parasites were used to infect a culture of HepG2 cells that were pre-incubated with compounds. Infected hepatocytes emit light due to the luciferase reaction. Assay results are presented as the percent inhibition of light emission compared to control. […]
Type: functional
Test Conditions: sporozoite, HEPG2TOX_HILL_SLOPE 4.01, HEPG2TOX_R_SQUARED 0.968, PBLUC_HILL_SLOPE 8.16, PBLUC_R_SQUARED 0.206, read-out: LUCIFERASE INFECTION ASSAY - IC50

Item Smiles	IC50, µM
COc1ccc(NS(=O)(=O)c2cc([N+](=O)[O-])ccc2N/N=C(\C)c2ccc(S(=O)(=O)NCc3ccco3)cc2)cc1	3.81
